tested on: RXRa homodimer (NR concentration 180 nM); assay: PBM binding z-score (relative to random genomic background probes); higher = stronger binding; sequences stand for … in GC…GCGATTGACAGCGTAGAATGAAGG
Below, each entry is listed alongside its reported PBM binding z-score.
# print the numeric value only

1. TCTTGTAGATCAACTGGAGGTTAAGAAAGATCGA = 0.971
2. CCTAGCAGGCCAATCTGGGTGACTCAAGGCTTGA = -0.592
3. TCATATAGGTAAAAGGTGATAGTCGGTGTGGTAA = 1.86

# evaluate next
*Q* Provide the documented PBM binding z-score with RXRa homodimer (NR concentration 180 nM) as the system for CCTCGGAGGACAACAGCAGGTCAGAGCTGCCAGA
*A* 0.692

====

tested on: RARa:RXR (NR concentration 270 nM, RXRa partner concentration 90 nM); assay: PBM binding z-score (relative to random genomic background probes); higher = stronger binding; sequences stand for … in GC…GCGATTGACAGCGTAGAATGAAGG
Label Met when PBM binding z-score >= 4; otherwise Not met.

*Q* I'd appreciate it if you could say whether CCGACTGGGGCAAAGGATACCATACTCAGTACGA has PBM binding z-score at least equal to 4.
*A* Not met

*Q* In plain terms: is recorded PBM binding z-score at least 4 for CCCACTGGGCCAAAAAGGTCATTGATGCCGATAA ?
*A* Met

*Q* Check the entry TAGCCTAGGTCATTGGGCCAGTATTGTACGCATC : does PBM binding z-score equal or exceed 4?
*A* Not met

*Q* # bool: PBM binding z-score of CGAACTAGGTCAGAACAAGACAGTGAAGGATGAT >= 4
*A* Not met

*Q* Exam item: decide whether the reported PBM binding z-score for CCTTGTTGGTCAAGGTCACACACGCTATAGGTAC is at least 4.
*A* Met

*Q* Check this sequence for PBM binding z-score at or above 4: AGAATGAGGTTAAGATCAAGGAAACAGAATACAT
*A* Not met

*Q* Hi, just wondering whether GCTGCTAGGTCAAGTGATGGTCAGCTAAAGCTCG shows PBM binding z-score of 4 or higher.
*A* Not met

*Q* Please check the record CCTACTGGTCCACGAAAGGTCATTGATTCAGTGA and state if its PBM binding z-score is at or above 4.
*A* Met

*Q* Dear colleague, could you confirm whether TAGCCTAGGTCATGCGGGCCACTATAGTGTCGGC has PBM binding z-score at or above 4?
*A* Not met

*Q* PBM binding z-score >= 4 for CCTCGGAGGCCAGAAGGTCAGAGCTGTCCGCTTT ?
*A* Not met

*Q* Is reported PBM binding z-score greater than or equal to 4 here: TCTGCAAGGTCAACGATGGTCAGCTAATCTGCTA
*A* Met

====

test system: PPARg:RXRa DBDmut IVT, anti-RXR (DBD mutation: RXRa K156A/R161A, NR concentration 270 nM, RXRa partner concentration 90 nM); assay: PBM binding z-score (relative to random genomic background probes); higher = stronger binding; sequences stand for … in GC…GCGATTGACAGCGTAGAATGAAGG
assay metric: PBM binding z-score

Look over these answered cases.
1) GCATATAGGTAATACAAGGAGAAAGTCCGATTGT = 3.9
2) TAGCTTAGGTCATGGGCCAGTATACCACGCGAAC = 1.43
3) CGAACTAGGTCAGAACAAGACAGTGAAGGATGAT = 7.36

*Q* // PBM binding z-score lookup, key: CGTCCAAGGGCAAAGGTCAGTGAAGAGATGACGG
*A* 1.01

*Q* Data request, read-out PBM binding z-score, for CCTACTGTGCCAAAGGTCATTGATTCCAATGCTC
*A* 5.24

*Q* Consider the sequence GCATATAGGTGATACAAGGTGAAAGTCCGATTGT and give its measured PBM binding z-score.
*A* 5.22

====

tested on: LXRb:RXRa (NR concentration 270 nM, RXRa partner concentration 90 nM); test: PBM binding z-score (relative to random genomic background probes); higher = stronger binding; sequences stand for … in GC…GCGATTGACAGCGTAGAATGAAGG
PBM binding z-score of 1 or higher: T. Under 1: F.

1. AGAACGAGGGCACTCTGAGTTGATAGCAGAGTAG = F
2. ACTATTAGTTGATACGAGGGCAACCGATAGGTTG = F
3. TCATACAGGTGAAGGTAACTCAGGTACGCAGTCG = T
4. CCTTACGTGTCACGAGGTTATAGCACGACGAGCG = T
5. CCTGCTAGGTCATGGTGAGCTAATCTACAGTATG = T

Kindly review the next sequence as well.
*Q* Check if PBM binding z-score >= 1 (inclusive). Item: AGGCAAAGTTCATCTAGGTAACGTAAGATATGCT
*A* T

====

Reported PBM binding z-score is given for each of the following sequences.
system: PPARg:RXRa 90nM:30nM, anti-RXR (NR concentration 90 nM, RXRa partner concentration 30 nM); experiment: PBM binding z-score (relative to random genomic background probes); higher = stronger binding; sequences stand for … in GC…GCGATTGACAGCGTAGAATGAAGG

Below, each entry is followed by its recorded PBM binding z-score result.
1) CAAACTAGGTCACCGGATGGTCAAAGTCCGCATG = 7.25
2) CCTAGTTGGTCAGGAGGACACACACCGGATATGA = -0.0104

*Q* Form entry - test system: PPARg:RXRa 90nM:30nM, anti-RXR (NR concentration 90 nM, RXRa partner concentration 30 nM); read-out: PBM binding z-score; sequence: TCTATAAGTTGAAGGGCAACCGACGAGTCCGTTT
*A* 3.29

*Q* Please provide the recorded PBM binding z-score for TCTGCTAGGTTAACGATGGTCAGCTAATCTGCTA , tested on PPARg:RXRa 90nM:30nM, anti-RXR (NR concentration 90 nM, RXRa partner concentration 30 nM).
*A* 1.06

*Q* Can you look up PBM binding z-score on PPARg:RXRa 90nM:30nM, anti-RXR (NR concentration 90 nM, RXRa partner concentration 30 nM) for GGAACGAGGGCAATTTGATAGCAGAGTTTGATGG ?
*A* 0.401

*Q* Give PBM binding z-score (PPARg:RXRa 90nM:30nM, anti-RXR (NR concentration 90 nM, RXRa partner concentration 30 nM)) of the following sequence: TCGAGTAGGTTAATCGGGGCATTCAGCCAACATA
*A* 1.31

*Q* Return PBM binding z-score measured with PPARg:RXRa 90nM:30nM, anti-RXR (NR concentration 90 nM, RXRa partner concentration 30 nM) given this sequence: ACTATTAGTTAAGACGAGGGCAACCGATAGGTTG
*A* -0.186

*Q* Test system PPARg:RXRa 90nM:30nM, anti-RXR (NR concentration 90 nM, RXRa partner concentration 30 nM); read-out PBM binding z-score; what value for GCTAGCAGGCCATTTTGGTCACTCAATGACGGGC ?
*A* -0.861

*Q* Provide the documented PBM binding z-score with PPARg:RXRa 90nM:30nM, anti-RXR (NR concentration 90 nM, RXRa partner concentration 30 nM) as the system for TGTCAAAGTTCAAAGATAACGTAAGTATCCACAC
*A* 6.88

*Q* Identify the measured PBM binding z-score of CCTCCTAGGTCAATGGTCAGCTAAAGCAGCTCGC for PPARg:RXRa 90nM:30nM, anti-RXR (NR concentration 90 nM, RXRa partner concentration 30 nM).
*A* 4.99

*Q* Please tell me: PBM binding z-score of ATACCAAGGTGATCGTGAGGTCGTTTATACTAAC , system PPARg:RXRa 90nM:30nM, anti-RXR (NR concentration 90 nM, RXRa partner concentration 30 nM)?
*A* 0.159

*Q* What PBM binding z-score appears in the records for this sequence with PPARg:RXRa 90nM:30nM, anti-RXR (NR concentration 90 nM, RXRa partner concentration 30 nM)? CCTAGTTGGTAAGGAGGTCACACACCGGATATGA
*A* 2.68

*Q* Under PPARg:RXRa 90nM:30nM, anti-RXR (NR concentration 90 nM, RXRa partner concentration 30 nM): PBM binding z-score value of AGTCACAGTTCATCTAGGTAACGTAAGATATGCT ?
*A* 1.04

*Q* PPARg:RXRa 90nM:30nM, anti-RXR (NR concentration 90 nM, RXRa partner concentration 30 nM) / PBM binding z-score / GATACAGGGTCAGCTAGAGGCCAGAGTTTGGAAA : value?
*A* 2.22

*Q* For the record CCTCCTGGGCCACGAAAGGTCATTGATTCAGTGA , what value of PBM binding z-score is listed for PPARg:RXRa 90nM:30nM, anti-RXR (NR concentration 90 nM, RXRa partner concentration 30 nM)?
*A* 2.02
